# maps each entry to its relative viability
system: EPLC-272H; assay: relative viability (nuclei count vs DMSO), 5 days (fraction); higher = more cells survive; conditions: first compound 4 µM
Number, no unit, nothing else.

Here's what some known entries look like.
[[record]]
molecule = "Cc1sc2c(c1C)C(c1ccc(Cl)cc1)=N[C@@H](CC(=O)OC(C)(C)C)c1nnc(C)n1-2 [JQ1] + Cc1nc(NC(=O)N2CCC[C@H]2C(N)=O)sc1-c1ccnc(C(C)(C)C(F)(F)F)c1 [Alpelisib] (partner 2 µM)"
measurement_type = "relative viability"
measured_value = 0.376

[[record]]
molecule = "Cc1sc2c(c1C)C(c1ccc(Cl)cc1)=N[C@@H](CC(=O)OC(C)(C)C)c1nnc(C)n1-2 [JQ1] + COc1cccc2cc(-c3nc([C@H]4CC[C@H](C(=O)O)CC4)n4ncnc(N)c34)[nH]c12 [OSI-027] (partner 0.5 µM)"
measurement_type = "relative viability"
measured_value = 0.248

[[record]]
molecule = "Cc1sc2c(c1C)C(c1ccc(Cl)cc1)=N[C@@H](CC(=O)OC(C)(C)C)c1nnc(C)n1-2 [JQ1] + NC(=O)Nc1cc(-c2cccc(F)c2)sc1C(=O)N[C@H]1CCCNC1 [AZD7762] (partner 0.2 µM)"
measurement_type = "relative viability"
measured_value = 0.214


Attention now shifts to the item below.
// returns reported relative viability for input Cc1sc2c(c1C)C(c1ccc(Cl)cc1)=N[C@@H](CC(=O)OC(C)(C)C)c1nnc(C)n1-2 [JQ1] + O=C(CCCCCCC(=O)Nc1ccccc1)NO [Vorinostat] (partner 1 µM)
0.206

---

tested on: NCI-H727; assay: relative viability (nuclei count vs DMSO), 5 days (fraction); higher = more cells survive; conditions: first compound 0.002 µM
MEASUREMENT_TYPE: relative viability

[[record]]
compound = "CC(=O)O[C@@]12CO[C@@H]1C[C@H](O)[C@@]1(C)C(=O)[C@H](O)C3=C(C)[C@@H](OC(=O)[C@H](O)[C@@H](NC(=O)OC(C)(C)C)c4ccccc4)C[C@@](O)([C@@H](OC(=O)c4ccccc4)[C@H]21)C3(C)C [Docetaxel] + O=C(CCCCCCC(=O)Nc1ccccc1)NO [Vorinostat] (partner 1 µM)"
measurement_type = "relative viability"
measured_value = 1.2

[[record]]
compound = "CC(=O)O[C@@]12CO[C@@H]1C[C@H](O)[C@@]1(C)C(=O)[C@H](O)C3=C(C)[C@@H](OC(=O)[C@H](O)[C@@H](NC(=O)OC(C)(C)C)c4ccccc4)C[C@@](O)([C@@H](OC(=O)c4ccccc4)[C@H]21)C3(C)C [Docetaxel] + Cc1nc(Nc2ncc(C(=O)Nc3c(C)cccc3Cl)s2)cc(N2CCN(CCO)CC2)n1 [Dasatinib] (partner 0.075 µM)"
measurement_type = "relative viability"
measured_value = 0.272


Lab note: need relative viability for CC(=O)O[C@@]12CO[C@@H]1C[C@H](O)[C@@]1(C)C(=O)[C@H](O)C3=C(C)[C@@H](OC(=O)[C@H](O)[C@@H](NC(=O)OC(C)(C)C)c4ccccc4)C[C@@](O)([C@@H](OC(=O)c4ccccc4)[C@H]21)C3(C)C [Docetaxel] + Nc1ncn([C@H]2C[C@H](O)[C@@H](CO)O2)c(=O)n1 [Decitabine] (partner 2 µM) on NCI-H727, anyone have it?
0.709

// data source = the supplement of paper PMC10307832
